Cited source: PubChem BioAssay (EPA / NIEHS)

- EXPERIMENT DESCRIPTION: CCTE_Shafer_MEA_acute_interburst_interval_mean: CCTE's Neural Acute Assay for Mean Interburst Interval, Shafer Lab (AID 2284016);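 also: percent change of mean interburst interval versus each well's own pre-dose baseline; curves fitted for decrease in interburst interval relative to DMSO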
Calls of active or inactive are those of the source. The calls were made as follows: active = hit-call score of the fitted dose curve at least 0.9, where 1 is the maximum; inactive = score below 0.9.
Answer with one of the outcomes YES (active), NO (inactive)

Worked examples follow.
> print(dat)
                                   compound  label
1  CC1(C)C(C=C(Cl)Cl)C1C(=O)OC(C#N)c1ccc(F)c(Oc2ccccc2)c1 (configuration not stated)     NO
2                  O=C(O)CCCOc1ccc(Cl)cc1Cl     NO
3  ClC1C(Cl)C(Cl)C(Cl)C(Cl)C1Cl (configuration not stated)     NO
4               CNC(=O)/C=C(\C)OP(=O)(OC)OC     NO
5  CCC(C)(C)C(=O)OC1=C(c2ccc(Cl)cc2Cl)C(=O)OC12CCCCC2     NO

Per the records of this test, what outcome belongs to N#CN ?
NO

Per the records of this test, what outcome belongs to O=[N+]([O-])/N=C1\NCCN1Cc1ccc(Cl)nc1 ?
NO

Per the records of this test, what outcome belongs to CCCN(CCOc1c(Cl)cc(Cl)cc1Cl)C(=O)n1ccnc1 ?
NO

Per the records of this test, what outcome belongs to COP(=S)(OC)Oc1ccc(SC)c(C)c1 ?
NO

Per the records of this test, what outcome belongs to O=S(=O)(O)C(F)(F)C(F)(F)C(F)(F)C(F)(F)C(F)(F)C(F)(F)C(F)(F)C(F)(F)F ?
NO

Per the records of this test, what outcome belongs to CNC(=O)CSP(=S)(OC)OC ?
NO

Per the records of this test, what outcome belongs to CCCN(CCC)c1c([N+](=O)[O-])cc(C(F)(F)F)cc1[N+](=O)[O-] ?
YES

* * *

- EXPERIMENT DESCRIPTION: ATG_RORE_CIS: Attagene CIS-FACTORIAL HepG2 Assay for human RAR-related Orphan Receptor Element (RORE) (AID 2282959)
- CONDITION DETAILS: HepG2 Attagene cis-factorial RORE reporter, mRNA; actives raise or lower the signal
Activity calls are given as the source filed them. The calls were made as follows: active = hit-call score of the fitted dose curve at least 0.9, where 1 is the maximum; inactive = score below 0.9.
METRIC: AC50

Observe how each entry below is paired with its result.
> print(dat)
                                   compound  metric  recorded.measurement
1                CCN(CC)C(=O)SCc1ccc(Cl)cc1    AC50        19 µM (active)
2  CCC(C)(NC(=O)c1cc(Cl)c(C)c(Cl)c1)C(=O)CCl (stereo unspecified)    AC50              inactive
3  CC1(C)C(C=C(Cl)Cl)C1C(=O)OC(C#N)c1ccc(F)c(Oc2ccccc2)c1 (stereo unspecified)    AC50              inactive
4  [2H]C1([2H])[n+]2ccccc2-c2cccc[n+]2C1([2H])[2H]    AC50              inactive
5  CC1(c2ccc(Oc3ccccc3)cc2)OC(=O)N(Nc2ccccc2)C1=O (stereo unspecified)    AC50              inactive

Let us move to another entry and its AC50.
Need AC50 of O=[N+]([O-])c1c(Cl)c(Cl)c(Cl)c(Cl)c1Cl , thanks.
10.7 µM (active)
